Ref: PubChem BioAssay (NCI)

System: HCT-116 colon
Assay: NCI tumour cell line growth inhibition, 48 h
Some compounds, each annotated with its measured TGI.

{"compound": "CCNC(=O)Oc1ccc(/C(=C(\\C)c2ccc(Cl)cc2)c2ccc(OCCN(CC)CC)cc2)cc1", "TGI": "4.86 µM"}
{"compound": "CCC1(OC(=O)CNC)C(=O)OCc2c1cc1n(c2=O)Cc2cc3ccccc3nc2-1 (stereo not drawn)", "TGI": "0.264 µM"}
{"compound": "Cc1ccccc1C=NC12CC3CC(CC(C3)C1)C2", "TGI": "> 100 µM"}
{"compound": "C[C@@H](Oc1ccc(Oc2cnc3ccc(Cl)cc3n2)cc1)C(=O)O", "TGI": "> 100 µM"}
{"compound": "OCC1C2CCC3(OCCO3)C12 (stereo not drawn)", "TGI": "> 100 µM"}
{"compound": "O=C1c2cccc([N+](=O)[O-])c2C(=O)c2nccnc21", "TGI": "3.66 µM"}
{"compound": "CN1C(=O)/C(=C2\\S/C(=N\\c3nnc(-c4ccccc4)o3)NC2=O)c2ccccc21", "TGI": "> 100 µM"}
{"compound": "COc1ccc(NC(=S)C#N)cc1", "TGI": "> 100 µM"}
